# SYSTEM TESTED: T1, NC(1-28) (HIV-1 (NL4-3 isolate), UniProt P12493 378-405)
# T1 chain: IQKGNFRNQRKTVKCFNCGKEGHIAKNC
# ASSAY OVERVIEW: fluorescence anisotropy
QUANTITY KIND: Kd (nM)

BINDER: CTTCTTTGGGAGTGAATTAG (ssDNA) [5'-FAM-DNA20]
UNIT OF MEASURE: nM
REPORTED MEASUREMENT: 731
